target of assay: Aminopeptidase N (Homo sapiens)
Sequence (P15144 whole entry): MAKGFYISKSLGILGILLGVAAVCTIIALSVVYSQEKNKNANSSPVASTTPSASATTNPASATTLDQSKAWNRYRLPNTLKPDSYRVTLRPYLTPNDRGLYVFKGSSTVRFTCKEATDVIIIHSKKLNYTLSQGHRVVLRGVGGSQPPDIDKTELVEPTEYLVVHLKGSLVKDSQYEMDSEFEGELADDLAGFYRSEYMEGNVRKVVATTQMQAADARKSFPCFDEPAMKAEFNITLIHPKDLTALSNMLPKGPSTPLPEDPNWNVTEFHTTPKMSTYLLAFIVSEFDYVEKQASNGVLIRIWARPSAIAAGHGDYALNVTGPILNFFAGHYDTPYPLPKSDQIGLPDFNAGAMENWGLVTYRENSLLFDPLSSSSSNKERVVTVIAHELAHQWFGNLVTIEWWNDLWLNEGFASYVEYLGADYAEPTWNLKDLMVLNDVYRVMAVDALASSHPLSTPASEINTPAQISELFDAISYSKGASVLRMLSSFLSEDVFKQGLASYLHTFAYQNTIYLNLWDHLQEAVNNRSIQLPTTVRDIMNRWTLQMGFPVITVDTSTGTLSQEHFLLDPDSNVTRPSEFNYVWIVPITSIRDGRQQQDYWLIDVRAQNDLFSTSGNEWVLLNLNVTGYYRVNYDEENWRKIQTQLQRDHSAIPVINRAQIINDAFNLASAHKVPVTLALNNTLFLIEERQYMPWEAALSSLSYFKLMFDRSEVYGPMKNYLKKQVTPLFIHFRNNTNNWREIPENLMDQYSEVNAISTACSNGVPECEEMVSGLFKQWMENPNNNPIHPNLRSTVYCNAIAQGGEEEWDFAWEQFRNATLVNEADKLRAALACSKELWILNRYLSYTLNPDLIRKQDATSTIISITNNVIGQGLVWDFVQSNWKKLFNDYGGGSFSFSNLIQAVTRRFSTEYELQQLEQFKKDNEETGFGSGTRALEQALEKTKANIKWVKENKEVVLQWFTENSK
quantity kind: pIC50
To interpret pIC50, take it as minus log10 of a concentration measured in moles per litre.

## Input State the measured pIC50 (Aminopeptidase N (Homo sapiens)) of O=C(CSc1ccc2ccccc2c1)NO
## Output 5.47

Hey, just so you know, these numbers are from ChEMBL document CHEMBL1145216.
